Below, each of the compounds is paired with its reported inhibition value.
- protocolText: blockers of Ca2+-induced mitochondrial swelling – biochemical, isolated mouse mitochondria, absorbance, primary screen (AID 602449);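 also: 0% = DMSO wells given calcium and 100% = 1 mM EGTA wells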
- conditionLabel: 30 min, at 10 µM, active compounds read high
Out of some 360,000 compounds screened, about 5,000 (1.4%) were called active. Shown is part of a subset that was picked to be rich in actives.
propertyMeasured: inhibition (%)

[[record]]
compound = "Cc1nnc(SC(C(=O)Nc2cc(Cl)cc(Cl)c2)c2ccccc2)[nH]c1=O (stereo unspecified)"
propertymeasured = "inhibition"
endpointvalue = 86.4

[[record]]
compound = "O=C(COC(=O)C1CC2C=CC1C2)Nc1ccccc1 (stereo unspecified)"
propertymeasured = "inhibition"
endpointvalue = -0.1

[[record]]
compound = "COc1cccc(C(NC(C)=O)c2nc(-c3cnc4ccccc4c3)cs2)c1 (stereo unspecified)"
propertymeasured = "inhibition"
endpointvalue = 0.4

[[record]]
compound = "Cc1nnc(SC(C(=O)c2ccccc2)c2ccccc2)[nH]c1=O (stereo unspecified)"
propertymeasured = "inhibition"
endpointvalue = 1.4

[[record]]
compound = "O=C(CCCN1C(=O)C2C3C=CC(C3)C2C1=O)N1CCN(c2ccccc2)CC1 (stereo unspecified)"
propertymeasured = "inhibition"
endpointvalue = -1.6

[[record]]
compound = "CC(NCC(=O)Nc1cc(Cl)cc(Cl)c1)c1ccccc1 (stereo unspecified)"
propertymeasured = "inhibition"
endpointvalue = 3.1


====

- protocolText: blockers of Ca2+-induced mitochondrial swelling – biochemical, isolated mouse mitochondria, absorbance, primary screen (AID 602449);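 also: 0% = DMSO wells given calcium and 100% = 1 mM EGTA wells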
- conditionLabel: 30 min, at 10 µM, active compounds read high
About 5,000 (1.4%) of roughly 360,000 compounds were called active. Many of the other results were omitted from the sample, so actives are more common in it than they were.
Known inhibition of a selection of compounds
propertyMeasured: inhibition (%)

[[record]]
compound = "Cc1nnc(NC(=O)Nc2ccc(Cl)c(Cl)c2)s1"
propertymeasured = "inhibition"
unitstring = "%"
endpointvalue = 88.5

[[record]]
compound = "O=S(=O)(Nc1ccc(O)c2ccccc12)c1ccc(OC(F)(F)F)cc1"
propertymeasured = "inhibition"
unitstring = "%"
endpointvalue = 34.9

[[record]]
compound = "COC(=O)c1sccc1NS(=O)(=O)c1ccc(F)cc1F"
propertymeasured = "inhibition"
unitstring = "%"
endpointvalue = 1.6

[[record]]
compound = "CN(C)Cc1c(C#N)c2ccccc2n1C"
propertymeasured = "inhibition"
unitstring = "%"
endpointvalue = -1.4

[[record]]
compound = "COC(=O)c1scc(C)c1NC(=O)CSc1ccc(Cl)cc1"
propertymeasured = "inhibition"
unitstring = "%"
endpointvalue = 3.3

[[record]]
compound = "Cc1nnc(NC(=O)Cn2c(=O)sc3ccccc32)s1"
propertymeasured = "inhibition"
unitstring = "%"
endpointvalue = -2.7

[[record]]
compound = "Cc1ccc(S(=O)(=O)CCC(=O)Nc2nnc(CC(C)C)s2)cc1"
propertymeasured = "inhibition"
unitstring = "%"
endpointvalue = 0.4

[[record]]
compound = "CCc1ccc(NC(=O)N[C@H](C(=O)O)C(C)CC)cc1 (stereo partly drawn)"
propertymeasured = "inhibition"
unitstring = "%"
endpointvalue = -1.3

[[record]]
compound = "CC(C)CC(=O)Nc1ccc(Cc2ccncc2)cc1"
propertymeasured = "inhibition"
unitstring = "%"
endpointvalue = 1.5

[[record]]
compound = "COc1ccc(C)cc1Nc1n[n+](-c2ccccc2)c(-c2cccc(Cl)c2Cl)s1"
propertymeasured = "inhibition"
unitstring = "%"
endpointvalue = 1.4

[[record]]
compound = "O=C1CC(c2c(F)cccc2Cl)C(n2cncn2)C(O)=C1C1NCCc2ccccc21 (stereo not drawn)"
propertymeasured = "inhibition"
unitstring = "%"
endpointvalue = 5.6

[[record]]
compound = "COc1cc(Br)c(-c2sc(Nc3ccccc3)n[n+]2-c2ccccc2)cc1OC"
propertymeasured = "inhibition"
unitstring = "%"
endpointvalue = 1.6

[[record]]
compound = "CCCCCc1c(-c2ccc(OC)c(OC)c2)ncn1CCc1ccccc1OC"
propertymeasured = "inhibition"
unitstring = "%"
endpointvalue = 5.6

[[record]]
compound = "COC(=O)c1sccc1NC(=O)CSc1ccccc1NS(=O)(=O)c1cc(Cl)ccc1Cl"
propertymeasured = "inhibition"
unitstring = "%"
endpointvalue = 86.3

[[record]]
compound = "COc1cccc(NC(=O)Nc2nnc(N3CCCCC3C)s2)c1 (stereo not drawn)"
propertymeasured = "inhibition"
unitstring = "%"
endpointvalue = 0.5

[[record]]
compound = "O=C(NNC(=S)NCc1ccccc1)c1ccc(OC(F)F)cc1"
propertymeasured = "inhibition"
unitstring = "%"
endpointvalue = -1.2

[[record]]
compound = "Cc1nnc(SCC(=O)N(C(C)C)C(C)C)nc1C"
propertymeasured = "inhibition"
unitstring = "%"
endpointvalue = -1.3

[[record]]
compound = "C/C(=N\\Nc1ccc([N+](=O)[O-])cc1)c1ccc(-n2nncc2C(C)(C)C)cc1"
propertymeasured = "inhibition"
unitstring = "%"
endpointvalue = 20.4

[[record]]
compound = "CCCc1nn(C)c2c(=O)[nH]c(-c3cc(S(N)(=O)=O)ccc3OCC)nc12"
propertymeasured = "inhibition"
unitstring = "%"
endpointvalue = -0.3

[[record]]
compound = "CCCC1=Nc2cc(C(=O)NCCN3CCCC3)ccc2Sc2ccccc21"
propertymeasured = "inhibition"
unitstring = "%"
endpointvalue = -1.2

[[record]]
compound = "CCCCCc1c(-c2cccc(Br)c2)ncn1CCc1ccccc1OC"
propertymeasured = "inhibition"
unitstring = "%"
endpointvalue = 1.3

[[record]]
compound = "CC(C)=CC(=O)Nc1nnc(-c2ccc(F)cc2)s1"
propertymeasured = "inhibition"
unitstring = "%"
endpointvalue = -0.8

[[record]]
compound = "CC(Nc1ccccc1)c1cccnc1 (stereo not drawn)"
propertymeasured = "inhibition"
unitstring = "%"
endpointvalue = -1.4

